Values were extracted from PubChem BioAssay.

Catalogue of z-score values
# Assay Procedure: compound effects on lung adenocarcinoma cell viability – A549, calcein-AM fluorescence, 48 h, basal, profiling panel (AID 1162); note: test concentration not given here
# Condition Description: higher = more signal
Respond using a number only.

In the examples that follow, each entry is paired with its recorded z-score.
CO[C@H]1O[C@H](CO)[C@@H](OC(=O)Nc2cccc(F)c2)[C@H](OC(=O)Nc2ccccc2)[C@H]1OC(=O)Nc1ccccc1 = -2.2
C=CCNC(=O)[C@@H]1[C@H]2C(=O)O[C@H](c3ccccc3)[C@H](c3ccccc3)N2[C@H](c2ccc(OCCO)cc2)[C@@]12C(=O)N(C(=O)OCCOC)c1ccc(C#CCNC(N)=O)cc12 = -0.0901
O=C(O)C1N=C(c2ccc(OCCCO)cc2)N(c2ccccc2)O1 (stereo not given) = -0.906
CC(c1ccccc1)C(O)C1C=CC2C(=O)N(c3ccccc3)C(=O)C2N1Nc1ccccc1 (stereo not given) = -0.477

Write down z-score measured for item O[C@@H](Cc1ccccc1)[C@@H](/C=C/C1CC1)NCc1cccc(Cl)c1 0.399

---

# Assay Procedure: probe aLAP1 signal on lysate-treated microarray – cell lysate, small-molecule microarray, COS7 lysate, primary screen (AID 1124);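 note: lysate comes from COS7 cells expressing LAP1 and is applied at 0.3 µg/mL; score merges spot fluorescence near 667 nm with signal-to-noise over triplicate slides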
# Condition Description: probe aLAP1, fluorescence, higher = more signal
Observable: composite z-score
Respond using a number only.

In the examples that follow, each entry is paired with its recorded composite z-score.
O=C1NC(=O)C2C1C=CC(C(O)C1CC=CCC1)N2Nc1ccccn1 (centres undefined) = 0.643
Cc1ccc(C2C3C(=O)CC4C(=O)N(c5ccccc5)C(=O)C4C3CN2S(=O)(=O)c2ccc(C)cc2)cc1 (centres undefined) = 0.362
C=CCNC(=O)[C@@H]1[C@H]2C(=O)O[C@H](c3ccccc3)[C@H](c3ccccc3)N2[C@H](c2ccc(OCCO)cc2)[C@@]12C(=O)N(C(=O)OCCOC)c1ccc(C#CCC(C(=O)OC)C(=O)OC)cc12 = 1.05

Could you now consider this next compound?
Write down composite z-score measured for item COc1ccc(NC(=O)O[C@H]2[C@H](OC(=O)c3cc4ccccc4[nH]3)[C@@H](OC(=O)c3cc4ccccc4[nH]3)[C@@H](OC)O[C@@H]2CO)cc1 0.614

---

# Assay Procedure: growth modulation of vineyard yeast isolate – strain RM11-1a, OD600, basal, 24 h, primary screen (AID 1177);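 note: cultures grown under basal conditions with no added stressor; test concentration not given here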
# Condition Description: S. cerevisiae RM11-1a growth, OD600, 24 h; higher = more signal, called active from +8 up or from −8 down
Observable: z-score
Respond using a number only.

COc1ccc(-c2cc3c(c(Cc4ccccc4)n2)[Si](C(C)C)(C(C)C)OC3)cn1 = 2
COCCOC(=O)N1C(=O)[C@@]2(c3cc(C#CC4=CCCCC4)ccc31)[C@H](c1ccc(OCCO)cc1)N1[C@H](c3ccccc3)[C@H](c3ccccc3)OC(=O)[C@H]1[C@@H]2C(=O)N1CCc2cc(OC)c(OC)cc2C1 = 4.26
C=CCOC(=O)[C@H]1[C@@H]2C(=O)O[C@@H](c3ccccc3)[C@@H](c3ccccc3)N2[C@@H](c2ccc(OCCOC(=O)[C@H]3C[C@H]4C(=O)N[C@@H](CCCCN(C)C)C(=O)N4[C@H]3c3cccc(OCCO)c3)cc2)[C@]12C(=O)Nc1ccc(I)cc12 = 1.75
O=C(CS)NCCCCCNC(=O)[C@H]1C[C@H]2C(=O)NCC(=O)N2[C@H]1c1cccc(OCCO)c1 = -0.39
C=CC[C@@]1(C(=O)N2CCCCC2)N=C(c2ccc(OCCCO)cc2)O[C@@H]1c1ccccc1CN=[N+]=[N-] = 0.607

Write down z-score measured for item COc1ccc([C@H]2OC[C@@H]3CCC(=O)N32)cc1 0.189

Write down z-score measured for item C=CC[C@]1(C(N)=O)COC(c2ccc(OCCCO)cc2)=N1 0.75

Write down z-score measured for item O=C1O[C@@H](c2ccccc2)[C@@H](c2ccccc2)N2[C@@H](c3ccc(OCCO)cc3)[C@]3(C(=O)Nc4ccc(C#CCCO)cc43)[C@@H](C(=O)NC[C@H](O)c3ccccc3)[C@H]12 2.97

Write down z-score measured for item COc1ccc(C(=O)Nc2ccc(CN3C(=O)[C@]4(O[C@H](CC(=O)N5CCC[C@H]5CO)[C@@H]([Si](C)(C)c5ccc(OC)cc5)[C@@H]4C)c4ccccc43)cc2)cc1 0.557

Write down z-score measured for item CCCC[C@H]1C[C@@H]1[C@@H]1N(P(=O)(c2ccccc2)c2ccccc2)C[C@@](O)(c2ccccc2)CC12CC2 0.781

Write down z-score measured for item C=C(CCCC)/C(=C/C[C@@H](OC(C)=O)c1ccccc1OCCO)c1cc(C(=O)OC)ccc1OC 0.724
